The values you see were collected from patent US20230167120A1.

Tested on: human glioma cell U87
assayProcedure: Pharmacodynamic study in human glioma cell U87 subcutaneous model
Format: in vivo, Balb/c nude mice
settings: Day 4; compounds 20 mg/Kg, q.d.×14 days
As shown below, each of these molecules has a reported Tumor inhibition rate value.
reportedMetric: Tumor inhibition rate (%)

Cc1ccc2c(=O)n(CCNC(=O)c3ncn4c(=O)n(C)nnc34)[se]c2c1 [Compound 8] | 58.48
Cn1nnc2c(C(=O)NCCn3[se]c4cc(F)ccc4c3=O)ncn2c1=O [Compound 3] | 47.90
Cn1nnc2c(C(=O)NCCn3[se]c4ccccc4c3=O)ncn2c1=O [Compound 1] | 58.78
Cn1nnc2c(C(N)=O)ncn2c1=O [TMZ, temozolomide, reference compound] | 38.14
Cc1ccc2[se]n(CCNC(=O)c3ncn4c(=O)n(C)nnc34)c(=O)c2c1 [Compound 6] | 68.76
